# Tested on: ATP;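 further: ATP exposure 15 min at 22 °C before imaging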
# test-details: switch fluorescence ratio, 500 uM ATP over buffer (Cy3 cluster intensity, sum of 5 cycles each) (fold (ratio)); higher = stronger signal-on switching upon ATP binding; sequences stand for … in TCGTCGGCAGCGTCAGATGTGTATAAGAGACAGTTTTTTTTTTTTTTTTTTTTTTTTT…TC
# protocol-conditions: aptamer strand: ATP DNA aptamer (quencher-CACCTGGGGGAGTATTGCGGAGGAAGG + anchor), 100 nM annealed; ATP concentration: 500 uM
Record form. Attribute: switch fluorescence ratio. Fill in for each entry.
Number only, no unit.

Query: // switch fluorescence ratio lookup, key: GAGACTAGGT
Result: 1.04

Query: Then TGGGGGGGTA ?
Result: 0.991

Query: Then CGAGGCTCCG ?
Result: 1.05

Query: Then TGGAAAGTGT ?
Result: 0.987

Query: Then TAGGCAGCGG ?
Result: 0.991

Query: Then GTTTATTAAA ?
Result: 1.04

Query: Then GCTGTGTAGG ?
Result: 0.994

Query: Then TTGAAGGCTT ?
Result: 0.997

Query: Then TGTGTATGCT ?
Result: 0.987

Query: Then CCATGTGACT ?
Result: 1.03

Query: Then ATAGGAGTCG ?
Result: 1

Query: Then GGATGCCTTT ?
Result: 0.977

Query: Then ATAGGGTGTG ?
Result: 1.02

Query: Then TGTTTTAAGC ?
Result: 1.03

Query: Then GATATGTGTT ?
Result: 1

Query: Then TTCGGGTCCG ?
Result: 0.988

Query: Then TTGGTTGTAA ?
Result: 1.03

Query: Then GAAGTCCATG ?
Result: 1.01

Query: Then ACGAGCCATG ?
Result: 1.1

Query: Then GGTTTGAGGA ?
Result: 0.971

---

# Tested on: ATP;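 further: ATP exposure 15 min at 22 °C before imaging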
# test-details: switch fluorescence ratio, 500 uM ATP over buffer (Cy3 cluster intensity, sum of 5 cycles each) (fold (ratio)); higher = stronger signal-on switching upon ATP binding; sequences stand for … in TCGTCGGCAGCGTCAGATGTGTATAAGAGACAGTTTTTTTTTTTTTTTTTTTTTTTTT…TC
# protocol-conditions: aptamer strand: ATP DNA aptamer (quencher-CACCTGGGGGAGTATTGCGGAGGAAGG + anchor), 100 nM annealed; ATP concentration: 500 uM
measure: switch fluorescence ratio
Number only, no unit.

Query: // switch fluorescence ratio lookup, key: CGCATTGGGG
Result: 1.13

Query: Then GGTTAAAGGT ?
Result: 1.02

Query: Then CAAAAGTGAT ?
Result: 1.01

Query: Then GAGGGCTTTG ?
Result: 1

Query: Then GGATGGAAAG ?
Result: 0.999

Query: Then AGGTCCTGTG ?
Result: 0.998

Query: Then TGGGAATGGG ?
Result: 0.986

Query: Then TTAGTAGTTG ?
Result: 1.02

Query: Then CGGTAACCGG ?
Result: 0.979

Query: Then ATCGTGTGTC ?
Result: 0.987

---

# System: ATP;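 further: ATP exposure 15 min at 22 °C before imaging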
# test-details: switch fluorescence ratio, 500 uM ATP over buffer (Cy3 cluster intensity, sum of 5 cycles each) (fold (ratio)); higher = stronger signal-on switching upon ATP binding; sequences stand for … in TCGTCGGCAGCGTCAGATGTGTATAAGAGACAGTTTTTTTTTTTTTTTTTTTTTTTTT…TC
# protocol-conditions: aptamer strand: ATP DNA aptamer (quencher-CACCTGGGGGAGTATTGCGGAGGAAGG + anchor), 100 nM annealed; ATP concentration: 500 uM
Record form. Attribute: switch fluorescence ratio. Fill in for each entry.

Query: // switch fluorescence ratio lookup, key: GACGTTATTG
Result: 1.03

Query: Then GGGATTGTCT ?
Result: 0.948

Query: Then CAAGGAATTT ?
Result: 0.969

Query: Then GAGGCGAGTC ?
Result: 1.06

Query: Then ATCGATTTTT ?
Result: 1

Query: Then TTGGGGGCGT ?
Result: 1.03

Query: Then TAGAAATTAT ?
Result: 1.19

Query: Then GCAGACAGCT ?
Result: 1.04

Query: Then TGAGATAACA ?
Result: 0.994

Query: Then TGCATTAGGG ?
Result: 0.993

---

# System: ATP;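 further: ATP exposure 15 min at 22 °C before imaging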
# test-details: switch fluorescence ratio, 500 uM ATP over buffer (Cy3 cluster intensity, sum of 5 cycles each) (fold (ratio)); higher = stronger signal-on switching upon ATP binding; sequences stand for … in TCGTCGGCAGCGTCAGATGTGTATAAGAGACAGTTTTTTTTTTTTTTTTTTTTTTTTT…TC
# protocol-conditions: aptamer strand: ATP DNA aptamer (quencher-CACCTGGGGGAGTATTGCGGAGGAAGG + anchor), 100 nM annealed; ATP concentration: 500 uM
Binary classification by switch fluorescence ratio, with 1 as an inclusive lower bound for TRUE; all other cases are FALSE.

Query: Say whether GATGGGGTCC shows switch fluorescence ratio of 1 or more.
Result: FALSE

Query: Then TGCCCTGCCT ?
Result: TRUE

Query: Then TTCGAAGGGT ?
Result: TRUE

Query: Then GCCGGTTCTG ?
Result: TRUE

Query: Then CCGAGTATGT ?
Result: TRUE

Query: Then AACAAGCTAT ?
Result: TRUE

---

# Test system: ATP;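 further: ATP exposure 15 min at 22 °C before imaging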
# test-details: switch fluorescence ratio, 500 uM ATP over buffer (Cy3 cluster intensity, sum of 5 cycles each) (fold (ratio)); higher = stronger signal-on switching upon ATP binding; sequences stand for … in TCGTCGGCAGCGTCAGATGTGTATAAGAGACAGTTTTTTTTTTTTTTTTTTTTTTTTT…TC
# protocol-conditions: aptamer strand: ATP DNA aptamer (quencher-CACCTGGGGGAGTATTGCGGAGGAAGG + anchor), 100 nM annealed; ATP concentration: 500 uM
measure: switch fluorescence ratio
Number only, no unit.

Query: // switch fluorescence ratio lookup, key: TTCTGAAACA
Result: 0.969

Query: Then TATGGCGGTC ?
Result: 0.924

Query: Then ACGTAGACGT ?
Result: 1.02

Query: Then AAATACTTGC ?
Result: 1.14

Query: Then AAAGTTATAT ?
Result: 1.02

Query: Then AGGGAAATCT ?
Result: 1.03

Query: Then CGCGTGGGGG ?
Result: 1.03

Query: Then TAGAGGAAGG ?
Result: 0.979

Query: Then TGAGTATTGC ?
Result: 0.969

Query: Then ACCGTATTTG ?
Result: 1.12

Query: Then GTTTCGTGAG ?
Result: 0.994

Query: Then GGGTGATTAA ?
Result: 0.994

Query: Then GGGGCGTCAG ?
Result: 0.97

Query: Then GGGATTTGG ?
Result: 0.985

Query: Then AAATTTGCCA ?
Result: 0.957

Query: Then ACTGGGGAGC ?
Result: 0.985

Query: Then ATGGGAGGGT ?
Result: 0.997

Query: Then TTTTCGGACA ?
Result: 1.03

Query: Then GGCCCAGGAG ?
Result: 1.01

Query: Then TTAGAGGGGT ?
Result: 0.992

Query: Then TTTTAAGACG ?
Result: 0.979

---

# Tested on: ATP;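 further: ATP exposure 15 min at 22 °C before imaging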
# test-details: switch fluorescence ratio, 500 uM ATP over buffer (Cy3 cluster intensity, sum of 5 cycles each) (fold (ratio)); higher = stronger signal-on switching upon ATP binding; sequences stand for … in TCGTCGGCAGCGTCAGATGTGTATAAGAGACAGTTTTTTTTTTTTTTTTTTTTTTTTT…TC
# protocol-conditions: aptamer strand: ATP DNA aptamer (quencher-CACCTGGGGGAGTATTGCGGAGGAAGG + anchor), 100 nM annealed; ATP concentration: 500 uM
Binary classification by switch fluorescence ratio, with 1 as an inclusive lower bound for 1; all other cases are -1.

Query: Say whether TGGATGTTTA shows switch fluorescence ratio of 1 or more.
Result: 1

Query: Then ATCTGGTATG ?
Result: -1

Query: Then ACGGGTAGGG ?
Result: 1

Query: Then AGGAGAACGG ?
Result: -1

Query: Then GACTAATTGG ?
Result: -1

Query: Then ACTCCGACCG ?
Result: 1

Query: Then ATTGCCGAGT ?
Result: 1

Query: Then ATAAATTTGC ?
Result: -1

Query: Then GACGGGGTGT ?
Result: 1

Query: Then GATATGTTCC ?
Result: 1

Query: Then TCAGGGGTTA ?
Result: 1

Query: Then GGGAAGGAAG ?
Result: 1

Query: Then TTCGTAATGT ?
Result: 1

Query: Then GCGTCAATTA ?
Result: 1

Query: Then CTCGGAACTA ?
Result: 1

Query: Then ATTGTGCTTT ?
Result: 1

Query: Then GATCTAAAAG ?
Result: 1

Query: Then GAAAAATTAC ?
Result: 1

Query: Then CGGCGATGGG ?
Result: 1

Query: Then CTAACTGAG ?
Result: 1

Query: Then AGGTCCTTCA ?
Result: 1

Query: Then CCATGGGTGC ?
Result: 1

Query: Then GGCATAGAGG ?
Result: 1

Query: Then AGCCCACTCG ?
Result: 1

Query: Then ACTTTGAGAT ?
Result: 1

Query: Then CACAGGGCTG ?
Result: 1

Query: Then GGGTCAAGCG ?
Result: -1

Query: Then AGAGGAAGGT ?
Result: 1
